Source listed as patent US11661431B2.

Entries and their pEC50
Target: UniProtKB Q9NYK1
Assay: TLR7 human peripheral blood mononuclear cell (PBMC) cell-based assay (GS-986 as agonist; IL-6 and IFNα readout)
Settings: human PBMCs, TLR7 agonist GS-986 at 400 nM, 6 hours, antagonist potency; read-out: TLR-7 EC50
Method: Human peripheral blood mononuclear cells (PBMCs) consist of lymphocytes, monocytes and dendritic cells that express TLR7, TLR8 and TLR9. […] After counting, the cell density was adjusted to 2 million cells/ml and incubated for 1 hour at 37° C., 5% CO2 for recovery. […] The level of cytokines (IL-6 and IFNα) in the supernatant was measured by electrochemiluminescence immunoassays (Mesoscale Discovery) following manufacturer's recommended protocols.
Entry type: numeric. Quantity: pEC50, the -log10 of concentration in molar units.

Sample answers from the record:
1. Cc1c(-c2[nH]c3sc([C@@H]4C[C@@H]5C[C@H]4CN5CCS(=O)(=O)N(C)C)c(C)c3c2C(C)C)cn2ncnc2c1C [Example 181]; 9.57
2. Cc1c(-c2[nH]c3sc([C@H]4C[C@@H]5CC[C@H]4CN5CC(N)=O)c(C)c3c2C(C)C)cn2ncnc2c1C (single isomer, unassigned) [Example 96]; 9.08
3. Cc1c(-c2[nH]c3sc(C4CCN(C(=O)[C@H]5CO[C@@H](C(F)(F)F)CN5)CC4)c(C)c3c2C(C)C)cn2ncnc2c1C [Example 285]; 8.49
4. Cc1c(-c2[nH]c3sc(C4COC5(CCNCC5)C4)c(C)c3c2C(C)C)cn2ncnc2c1C (stereo not shown) [Example 78]; 9.38

Exam item: If you can, please state the reported pEC50 value of Cc1c(-c2[nH]c3sc([C@@H]4C[C@H]5CC[C@@H](C4)N5CC(N)=O)c(C)c3c2C(C)C)cn2ncnc2c1C [Example 91] .
Marked response: 10.05

Exam item: Consider the molecule shown here: Cc1c(C2CCC3(CC2)CN(C(=O)[C@H]2CCCN2)C3)sc2[nH]c(-c3cc(C)c4ncnn4c3)c(C(C)C)c12 [Example 38] What is its recorded pEC50?
Marked response: 9.66

Exam item: What does the record list as pEC50 for Cc1c(C23CCNCC2C3)sc2[nH]c(-c3cc(C)c4ncnn4c3)c(C(C)C)c12 (stereo not shown) [Example 195] ?
Marked response: 10.30

Exam item: Item under review: Cc1nnc(CN2C[C@@H]3C[C@H]2C[C@H]3c2sc3[nH]c(-c4cn5ncnc5c(C)c4C)c(C(C)C)c3c2C)o1 [Example 119] . Reported pEC50?
Marked response: 9.47

Exam item: For the molecule Cc1c(-c2[nH]c3sc([C@@H]4C[C@@H]5CC[C@H]4CN5CC(N)=O)c(C)c3c2C(C)C)cn2ncnc2c1C (single isomer, unassigned) [Example 95] , what pEC50 is on record?
Marked response: 9.15

Exam item: Requested field: pEC50. Item: Cc1c(C2CC3(C2)CN(CC(N)=O)C3)sc2[nH]c(-c3cc(C)c4ncnn4c3)c(C(C)C)c12 [Example 29]
Marked response: 9.03

---

Molecular target: TLR8 (Homo sapiens (Human))
Assay: TLR8 human peripheral blood mononuclear cell (PBMC) cell-based assay (Compound A as agonist; TNFα and IL12p40 readout)
Settings: human PBMCs, TLR8 agonist Compound A at 800 nM, 6 hours, antagonist potency; read-out: TLR-8 EC50
Description: After counting, the cell density was adjusted to 2 million cells/ml and incubated for 1 hour at 37° C., 5% CO2 for recovery. […] The level of cytokines (TNFα and IL12p40) in the supernatant was measured by electrochemiluminescence immunoassays (Mesoscale Discovery) following manufacturer's recommended protocols.
Note to self: use t only for EC50 readings below 7 nM; a reading exactly at 7 nM still gets f.

1) Cc1c(-c2[nH]c3sc(C4CC5(C4)CN(CC(N)=O)C5)c(C)c3c2C(C)C)cn2ncnc2c1C; t
2) Cc1c(C2CCCN(CC(N)=O)CC2)sc2[nH]c(-c3cc(C)c4ncnn4c3)c(C(C)C)c12 (centres unmarked) [Example 161]; f
3) Cc1c(-c2[nH]c3sc(C4C[C@@H]5C[C@H]4CC5N4CCS(=O)(=O)CC4)c(C)c3c2C(C)C)cn2ncnc2c1C (some centres unmarked); f
4) Cc1c(C(=O)N(C)C2CCN(CCO)CC2)sc2[nH]c(-c3cc(C)c4ncnn4c3)c(C(C)C)c12; t
5) Cc1c(-c2[nH]c3sc(C4CC5(C4)CC(N(C4COC4)C4COC4)C5)c(C)c3c2C(C)C)cn2ncnc2c1C (centres unmarked); f
6) Cc1c(-c2[nH]c3sc([C@@H]4C[C@@H]5CC[C@H]4CN5CC(=O)N(C)C)c(C)c3c2C(C)C)cn2ncnc2c1C (single isomer, unassigned); t
7) Cc1c(C2CCN(C(=O)[C@H]3CNCCO3)CC2)sc2[nH]c(-c3cc(C)c4ncnn4c3)c(C(C)C)c12; f
8) Cc1c(C2CC3(CCCN3)C2)sc2[nH]c(-c3cc(C)c4ncnn4c3)c(C(C)C)c12 (centres unmarked); t
9) Cc1c(C2CCN(CC(N)=O)CC2)sc2[nH]c(-c3ccc(C#N)c4ncccc34)c(C(C)C)c12; f
10) Cc1c(C2CCN(C(=O)[C@H]3COCCN3C)CC2)sc2[nH]c(-c3cc(C)c4ncnn4c3)c(C(C)C)c12; f

Exam item: Hello, is EC50 of the following compound strictly smaller than 7 nM? `Cc1c(-c2[nH]c3sc([C@@H]4C[C@@H]5C[C@H]4CN5Cc4n[nH]c(=O)[nH]4)c(C)c3c2C(C)C)cn2ncnc2c1C`
Marked response: t

Exam item: Regarding `Cc1c(C2CCN(C(=O)[C@@H]3COCCN3C)CC2)sc2[nH]c(-c3cc(C)c4ncnn4c3)c(C(C)C)c12` , kindly confirm whether its EC50 is beneath 7 nM.
Marked response: f

Exam item: Check if EC50 falls below 7 nM for Cc1c(-c2[nH]c3sc(C4CCC(N5CC6(CCNC6=O)C5)CC4)c(C)c3c2C(C)C)cn2ncnc2c1C (single isomer, unassigned) [Example 306] .
Marked response: t

Exam item: Is the reported EC50 for `Cc1c(-c2[nH]c3sc(C4CCN(C(=O)[C@@H]5CNCCO5)CC4)c(C)c3c2C(C)C)cn2ncnc2c1C` strictly below 7 nM?
Marked response: t

---

Target: TLR7 (Homo sapiens (Human), UniProt Q9NYK1)
Sequence (Q9NYK1 27-1049): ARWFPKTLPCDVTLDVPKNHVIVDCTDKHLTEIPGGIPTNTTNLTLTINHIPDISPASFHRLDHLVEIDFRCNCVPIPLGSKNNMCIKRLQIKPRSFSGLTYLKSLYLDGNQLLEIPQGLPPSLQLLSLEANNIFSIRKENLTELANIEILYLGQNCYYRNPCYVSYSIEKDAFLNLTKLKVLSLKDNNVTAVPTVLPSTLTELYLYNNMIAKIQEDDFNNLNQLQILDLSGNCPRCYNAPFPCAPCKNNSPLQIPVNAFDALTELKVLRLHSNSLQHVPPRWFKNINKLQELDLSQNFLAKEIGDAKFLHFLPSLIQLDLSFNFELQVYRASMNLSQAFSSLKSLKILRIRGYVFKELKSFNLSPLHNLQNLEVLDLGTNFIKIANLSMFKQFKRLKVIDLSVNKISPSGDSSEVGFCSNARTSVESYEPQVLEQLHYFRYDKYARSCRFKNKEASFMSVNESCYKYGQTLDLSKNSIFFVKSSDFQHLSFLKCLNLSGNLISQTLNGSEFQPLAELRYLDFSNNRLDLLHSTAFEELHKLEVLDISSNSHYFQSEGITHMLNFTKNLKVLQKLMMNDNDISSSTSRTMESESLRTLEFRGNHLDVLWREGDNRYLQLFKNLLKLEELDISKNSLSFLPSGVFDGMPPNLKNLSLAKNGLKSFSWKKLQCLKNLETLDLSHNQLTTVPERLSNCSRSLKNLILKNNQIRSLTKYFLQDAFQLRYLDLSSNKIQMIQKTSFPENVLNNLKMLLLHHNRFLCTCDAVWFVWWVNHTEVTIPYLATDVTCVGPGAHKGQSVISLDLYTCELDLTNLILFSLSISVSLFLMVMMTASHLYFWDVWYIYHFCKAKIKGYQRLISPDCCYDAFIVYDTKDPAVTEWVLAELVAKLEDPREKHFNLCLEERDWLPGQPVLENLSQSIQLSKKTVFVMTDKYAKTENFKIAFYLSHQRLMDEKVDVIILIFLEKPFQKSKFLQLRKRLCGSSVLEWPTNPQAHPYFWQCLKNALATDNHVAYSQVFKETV
Test: TLR7 human peripheral blood mononuclear cell (PBMC) cell-based assay (GS-986 as agonist; IL-6 and IFNα readout)
Conditions: human PBMCs, TLR7 agonist GS-986 at 400 nM, 6 hours, antagonist potency; read-out: TLR-7 EC50
Method: Human peripheral blood mononuclear cells (PBMCs) consist of lymphocytes, monocytes and dendritic cells that express TLR7, TLR8 and TLR9. […] After counting, the cell density was adjusted to 2 million cells/ml and incubated for 1 hour at 37° C., 5% CO2 for recovery. […] The level of cytokines (IL-6 and IFNα) in the supernatant was measured by electrochemiluminescence immunoassays (Mesoscale Discovery) following manufacturer's recommended protocols.
property.measured: EC50 (nM)
# number only, unit nM dropped from output

The examples below pair each entry with its known result.
1) Cc1c(-c2[nH]c3sc(C4CC5(CNCCO5)C4)c(C)c3c2C(C)C)cn2ncnc2c1C (single isomer, unassigned) [Example 89]; 0.2
2) Cc1c(-c2[nH]c3sc([C@@H]4C[C@@H]5C[C@H]4CN5C4CC5(C4)CS(=O)(=O)C5)c(C)c3c2C(C)C)cn2ncnc2c1C; 0.29
3) Cc1c(-c2[nH]c3sc([C@@H]4C[C@@H]5C[C@H]4CN5CC(N)=O)c(C)c3c2C(C)C)cn2ncnc2c1C; 0.12
4) Cc1c(-c2[nH]c3sc(C4COC5(CCN(CC(N)=O)CC5)C4)c(C)c3c2C(C)C)cn2ncnc2c1C (single isomer, unassigned) [Example 88]; 1.44
5) Cc1c(C2C[C@H]3CC[C@@H]2CN3)sc2[nH]c(-c3cc(C)c4ncnn4c3)c(C(C)C)c12 (stereo partly drawn); 2.23

Exam item: Can you look up EC50 on TLR7 (Homo sapiens (Human), UniProt Q9NYK1) for `Cc1c(C2CCN(S(=O)(=O)N3CCN(C)CC3)CC2)sc2[nH]c(-c3cc(C)c4ncnn4c3)c(C(C)C)c12` ?
Marked response: 0.17

---

Target: TLR8 (Homo sapiens (Human), UniProt Q9NR97)
Sequence (Q9NR97 27-1041): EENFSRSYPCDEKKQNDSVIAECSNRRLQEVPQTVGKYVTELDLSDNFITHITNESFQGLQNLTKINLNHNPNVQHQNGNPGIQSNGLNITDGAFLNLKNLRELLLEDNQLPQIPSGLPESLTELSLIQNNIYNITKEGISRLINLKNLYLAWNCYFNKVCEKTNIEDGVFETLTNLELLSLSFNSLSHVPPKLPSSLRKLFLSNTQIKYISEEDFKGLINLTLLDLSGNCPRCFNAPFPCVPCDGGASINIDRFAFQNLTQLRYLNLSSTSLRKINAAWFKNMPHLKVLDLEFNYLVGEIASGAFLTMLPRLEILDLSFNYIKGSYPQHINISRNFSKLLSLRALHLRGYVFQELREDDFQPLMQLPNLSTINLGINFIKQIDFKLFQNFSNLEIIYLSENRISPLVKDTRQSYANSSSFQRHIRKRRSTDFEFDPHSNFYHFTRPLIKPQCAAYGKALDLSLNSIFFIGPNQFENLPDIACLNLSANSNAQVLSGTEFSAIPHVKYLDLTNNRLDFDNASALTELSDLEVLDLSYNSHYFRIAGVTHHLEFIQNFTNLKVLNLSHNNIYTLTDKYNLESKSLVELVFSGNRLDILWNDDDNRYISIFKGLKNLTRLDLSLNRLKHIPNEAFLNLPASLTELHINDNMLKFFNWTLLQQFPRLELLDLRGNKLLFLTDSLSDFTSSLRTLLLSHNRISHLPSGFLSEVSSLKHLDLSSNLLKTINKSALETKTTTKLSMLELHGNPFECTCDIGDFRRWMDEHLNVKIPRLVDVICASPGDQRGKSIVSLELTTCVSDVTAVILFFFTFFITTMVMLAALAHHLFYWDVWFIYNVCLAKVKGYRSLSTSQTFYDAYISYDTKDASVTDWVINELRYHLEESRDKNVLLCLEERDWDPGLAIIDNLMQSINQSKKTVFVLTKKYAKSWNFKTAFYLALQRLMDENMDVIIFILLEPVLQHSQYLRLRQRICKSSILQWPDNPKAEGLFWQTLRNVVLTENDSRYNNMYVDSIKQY
Test: TLR8 human peripheral blood mononuclear cell (PBMC) cell-based assay (Compound A as agonist; TNFα and IL12p40 readout)
Conditions: human PBMCs, TLR8 agonist Compound A at 800 nM, 6 hours, antagonist potency; read-out: TLR-8 EC50
compounds and their reported pEC50
Would you please state pEC50, meaning minus log10 of the concentration in mol/L, as a bare number?

Below are worked cases with known answers.
1. Cc1cc2ncnn2cc1-c1[nH]c2sc(C3CCN(CC(N)=O)CC3)c(C)c2c1C(C)C [Example 235]; 7.31
2. Cc1c(C2CCN(C(=O)[C@@H]3C[C@@H](F)CN3)CC2)sc2[nH]c(-c3cc(C)c4ncnn4c3)c(C(C)C)c12 [Example 117]; 7.78
3. Cc1c(-c2[nH]c3sc(C45CCN(CCS(C)(=O)=O)CC4C5)c(C)c3c2C(C)C)cn2ncnc2c1C (centres unmarked) [Example 217]; 7.10
4. Cc1cc(-c2[nH]c3sc([C@H]4C[C@@]5(CCCN(CC(N)=O)C5)C4)c(C)c3c2C(C)C)cn2ncnc12 [Example 141]; 7.97
5. COc1cc(-c2[nH]c3cc(C4CCNCC4)sc3c2C(C)C)cn2ncnc12 [Example B-1, reference compound]; 8.59
6. Cc1c(C2CC23CCNCC3)sc2[nH]c(-c3cc(C)c4ncnn4c3)c(C(C)C)c12 (centres unmarked) [Example 209]; 7.97
7. Cc1noc(C)c1CN1C[C@@H]2C[C@H]1C[C@H]2c1sc2[nH]c(-c3cn4ncnc4c(C)c3C)c(C(C)C)c2c1C [Example 120]; 8.96
8. Cc1c(C2C3CCC2CN(CC(N)=O)C3)sc2[nH]c(-c3cc(C)c4ncnn4c3)c(C(C)C)c12 (centres unmarked) [Example 63]; 7.56

Exam item: Please look up its pEC50: Cc1c(-c2[nH]c3sc([C@H]4C[C@@H]5CC[C@H]4CN5CC(N)=O)c(C)c3c2C(C)C)cn2ncnc2c1C (single isomer, unassigned) [Example 96]
Marked response: 8.17

Exam item: Can you share its pEC50? I mean this compound: Cc1c(C2C[C@H]3CC[C@@H]2CN3)sc2[nH]c(-c3cc(C)c4ncnn4c3)c(C(C)C)c12 (some centres unmarked) [Example 189]
Marked response: 7.51

Exam item: Could you tell me which pEC50 is on file for Cc1c(-c2[nH]c3sc(C4COC5(CCN(CC(N)=O)CC5)C4)c(C)c3c2C(C)C)cn2ncnc2c1C (single isomer, unassigned) [Example 87] ?
Marked response: 7.68

Exam item: Would you kindly share the measured pEC50 for Cc1c(-c2[nH]c3sc(C4CCN(CC5CCN(C)C5=O)CC4)c(C)c3c2C(C)C)cn2ncnc2c1C (centres unmarked) [Example 289] ?
Marked response: 8.63

Exam item: What value of measured pEC50 is listed for Cc1c(CC2CCNCC2)sc2[nH]c(-c3cc(C)c4ncnn4c3)c(C(C)C)c12 [Example 278] ?
Marked response: 9.10
